- Procedure details: Solubility in water
- Assay type: physicochemical
- Particulars: sodium salt
Where a name gives a salt, the structure may show the parent alone.
Metric: solubility

Consider the compound CCCCCCCCCCCC(=O)O[C@H](CCCCCCCCCCC)CC(=O)N[C@H]1[C@H](OC[C@H]2O[C@H](OP(=O)(O)O)[C@H](NC(=O)C[C@H](O)CCCCCCCCCCC)[C@@H](O)[C@@H]2O)O[C@H](CO)[C@@H](OP(=O)(O)O)[C@@H]1O [sodium salt] and give its measured solubility.
≥ 100 mg/mL
